I'd appreciate it if you could supply NTS2 Emax % of 5b values for the items below.
- TARGET: rNTS2 receptor (Rattus norvegicus)
- Construct: expressed in transfected cells
- Sequence (Q63384 1-416): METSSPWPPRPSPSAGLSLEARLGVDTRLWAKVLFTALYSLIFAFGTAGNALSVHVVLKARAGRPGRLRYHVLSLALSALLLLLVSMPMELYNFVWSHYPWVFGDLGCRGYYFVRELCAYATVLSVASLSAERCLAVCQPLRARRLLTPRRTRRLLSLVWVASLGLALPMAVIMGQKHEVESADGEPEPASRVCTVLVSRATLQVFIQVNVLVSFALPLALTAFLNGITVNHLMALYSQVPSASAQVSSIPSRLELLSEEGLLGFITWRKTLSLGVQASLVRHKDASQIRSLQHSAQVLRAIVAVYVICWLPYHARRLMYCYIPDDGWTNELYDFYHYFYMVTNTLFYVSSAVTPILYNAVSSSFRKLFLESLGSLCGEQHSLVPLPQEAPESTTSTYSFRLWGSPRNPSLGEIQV
- TEST PROTOCOL: Calcium mobilization assay for NTS2 receptor (FLIPR Tetra)
- Type: cell-based
- RUN PARAMETERS: FLIPR assay, calcium release relative to 5b; ± SEM

Give NTS2 Emax % of 5b for each listed item.
1. COc1cccc(OC)c1-c1cc(C(=O)NC2(C(=O)O)CCCCCC2)nn1-c1ccnc2cc(Cl)ccc12 [20b]
2. COc1cccc(OC)c1-c1cc(C(=O)N[C@H](C(=O)O)C2CCCCC2)nn1-c1ccc(F)cc1 [28b]
3. COc1cccc(OC)c1-c1cc(C(=O)NC2(C(=O)O)C3CC4CC(C3)CC2C4)nn1-c1ccc(C(=O)N(C)CCCN(C)C)cc1C(C)C (stereo not shown) [5b, reference compound]
4. COc1cccc(OC)c1-c1cc(C(=O)NC2(C(=O)O)CCCCC2)nn1-c1ccc(F)cc1 [29b]
5. COc1ccccc1-c1cc(C(=O)NC2(C(=O)O)CCCCC2)nn1-c1ccc(F)cc1

1: 89 ± 5 % of 5b; 2: 22 ± 5 % of 5b; 3: 100 ± 5 % of 5b; 4: 12 ± 0.5 % of 5b; 5: 7 ± 2 % of 5b

Give NTS2 Emax % of 5b for each listed item.
1. COc1cccc(OC)c1-c1cc(C(=O)NC2(C(=O)O)CCCC2)nn1-c1ccnc2cc(Cl)ccc12 [22b]
2. COc1ccc(-c2cc(C(=O)N[C@H](C(=O)O)C3CCCCC3)nn2-c2ccnc3cc(Cl)ccc23)c(OC)c1 [16b]

["76 ± 4 % of 5b", "12 ± 3 % of 5b"]
